Values from a melting point compilation (Tetko et al.; mined from patent text by program, amines drawn as free bases though some values may be those of a salt)

In this section, each of the molecules is paired with its reported melting point.

Recorded melting point, per entry:
>>> df
                                   molecule       measured
0        Cc1onc(-c2ccc(Cl)o2)c1-c1ccc(F)cc1  104 to 105 °C
1  O=C(Nc1ccccn1)Nc1cccc2c1C1CCCCN1C2=O (stereo not given)         142 °C

Ask: I would be grateful if you could share the reported melting point for CCOC(=O)c1c(C)cc2nc(CO)n(-c3ccc4c(c3)OCO4)c(=O)c2c1C .
Result: 159 to 161 °C

Ask: Query CCn1ncc2c(O)c(CCc3ccccc3)c(C)nc21 next
Result: 251 to 256 °C

Ask: Note, next up: Oc1c(CN2CCSCC2)ncc2c1COC2c1ccccc1 (stereo not given)
Result: 185 °C

Ask: Ok, now Nc1nn(Cc2ccccc2)c2nc3n(c(=O)c12)CCS3
Result: 233 to 236 °C

Ask: Check COc1ccc(S(=O)(=O)N(CC(N)=O)c2ccc(Cl)cc2C(C)c2ccccc2Cl)cc1OC (stereo not given) too.
Result: 150 °C

Ask: Do the same for COCOc1ccccc1-c1cc(-c2cc([N+](=O)[O-])ccc2Cl)c(C#N)c(NC(=O)c2cccs2)n1 please
Result: 208 to 209 °C

Ask: Same thing, different molecule: O=C(O)C1Cc2ccccc2CN1C(=O)c1ccc(F)c(F)c1 (stereo not given)
Result: 89 to 91 °C

Ask: Would you kindly repeat that for O=C1OC(OC(=O)c2cccnc2Cl)c2ccccc21 (stereo not given) ?
Result: 137 to 138 °C

* * *

Entries and their melting point

# count of solved cases: 2
                                   compound       measured
0  COC(CCc1ccc(Cl)cc1Cl)(Cn1cncn1)C(C)(C)C1OCCCO1 (stereo not given)  130 to 132 °C
1  CN(O)C(=O)Nc1ccc(S(C)=O)cc1 (stereo not given)         198 °C

Ask: Any idea what melting point was measured for O=S(=O)(CCCl)CCC(F)(F)C(F)(F)C(F)(F)C(F)(F)C(F)(F)C(F)(F)F ?
Result: 104 to 106 °C

Ask: Input CCCCCCCCCCCCCCOc1ccc(CNC(C)=O)cc1
Result: 100 to 101 °C

Ask: What about this compound? O=C(CCl)Nc1cc(C(=O)NC(CO)CO)cc(C(=O)NC(CO)CO)c1
Result: 222 to 224 °C

* * *

Consider the following molecules and their measured melting point readings.

Some molecules with known melting point results, for comparison:
In [3]: df
Out[3]:
                                   molecule       measured
0  NS(=O)(=O)c1nc2ccc(OC(=O)Cc3ccc(Cl)cc3)cc2s1  206 to 208 °C
1  CC#Cc1cn(C2OC(CO)C(O)C2O)c(=O)[nH]c1=O (stereo unspecified)  225 to 227 °C
2               CCCCCOc1cc(C=CC(=O)O)ccc1OC         150 °C
3  CSc1ccc(C(=O)c2cc(-c3cccnc3)c(N3CCOCC3)s2)cc1         127 °C
4  CCOc1ccc(CCNC(=O)/C=C/c2cccs2)cc1S(=O)(=O)NC(=S)NC          74 °C
5  CCCn1c(=O)c2[nH]c([C@@H](C)Cc3ccccc3)nc2n(CCC)c1=O  141 to 142 °C
6  CS(=O)c1ccc(C(CC2CCCC2)C(=O)Nc2nccs2)cc1 (stereo unspecified)  170 to 173 °C
7  Cn1c(C(F)(F)F)cc(=O)n(-c2c(F)cc(Cl)c3cc(CS(C)(=O)=O)oc23)c1=O  209 to 211 °C

Ask: Which melting point reading was recorded for the molecule CCc1nc(C)c(CC(=O)N(CC)CC)c(=O)n1Cc1ccc(-c2ccccc2-c2nnn[nH]2)cc1 ?
Result: 125 to 131 °C

Ask: Similarly, CC(=O)NC[C@H]1CN(c2ccc(C(=O)c3cnc4ccc(Cl)nn34)cc2)C(=O)O1 ?
Result: 194 to 196 °C

Ask: Now consider O=Cc1[nH]cc2c1OCCO2 and answer again.
Result: 147 °C

Ask: Try the molecule CC(=O)N(O)Cc1cccc(C(O)C#Cc2ccsc2)c1 (stereo unspecified)
Result: 133 °C

Ask: Now consider CC=CC1=NC(=Cc2cccs2)C(=O)O1 and answer again.
Result: 174 to 176 °C

Ask: Okay, and CCOC(=O)COc1ccc(Oc2nc(Cl)cc3ccccc23)cc1 ?
Result: 97 °C

Ask: What about CS(=O)(=O)Nc1ccc(C=O)cc1F ?
Result: 151 °C

Ask: // next record ClCCc1nc2c(ccc3ccccc32)o1
Result: 80 to 82 °C

Ask: Follow-up item: CCC1SC(=O)N(Cc2ccc(N)cc2)N=C1c1ccc(OC)c(OC)c1 (stereo unspecified)
Result: 105 °C

Ask: Try this molecule next: FC(F)(F)c1cccc(CCc2nnc(-c3ccnc4[nH]ccc34)o2)c1
Result: 176 to 177 °C

Ask: Same question for CC(=O)NC[C@H]1CN(c2ccc(N3CCC4(CC3)CC4=S=O)c(F)c2)C(=O)O1 please.
Result: 78 to 80 °C

Ask: Also CSc1nc(N)nc(N)c1-c1ccc(Cl)cc1Cl ?
Result: 191 to 192 °C

* * *

Below: a set of entries, each annotated with reported melting point.

                                   molecule       measured
0  C#CCN(Cc1cc2c(=O)[nH]c(C)nc2cc1Br)c1ccc(C(=O)NC(CO)c2cccc([N+](=O)[O-])c2)cc1 (centres undefined)  221 to 232 °C
1              Cc1c(C#N)c(=O)oc2ccc(Br)cc12  187 to 192 °C
2  N#Cc1c(CNC(=O)C2(S(=O)(=O)c3ccc(Cl)cc3)CCCC2)nn(-c2ccccc2Cl)c1-c1ccc(Cl)cc1         109 °C
3       N#Cc1cc(N)ccc1N1CCC(N2CCC(O)CC2)CC1         175 °C

Proceed to the following item.
Ask: Name the recorded melting point for O=C(O)C(=O)CC(=O)c1cccn1Cc1cccc(F)c1F .
Result: 154 to 156 °C

* * *

Recorded melting point values for a group of compounds are listed next.

// solved cases for melting point follow
>>> print(df.to_string())
                                smiles_text  quantity_name       measured
0  CCOC(=O)c1c(CN2CCCCC2)nc2cc(OC)c(OC)cc2c1-c1ccc(OC)c(OC)c1  melting point  148 to 149 °C
1  COc1cc(Nc2ncc3cc(-c4c(Cl)cccc4Cl)c(=O)n(C)c3n2)cc(OC)c1  melting point  228 to 230 °C
2  CCc1nc2c(N)nc3cc(Oc4ccc(C(=O)OC)cn4)ccc3c2s1  melting point  213 to 214 °C
3  O=C(CC1CC1)Nc1c(C(=O)c2ccccc2)[nH]c2cc(Cl)ccc12  melting point    72 to 75 °C
4  COc1ccc(/C=C(/C(=O)OC(C)(C)C)C(=O)c2ccccc2O)cc1  melting point  129 to 132 °C

Ask: Entry under review: CCC(O)(CC)c1ccc(-c2cccc(OCc3ccc(CO)c(CO)c3)c2C)cc1 . Reported melting point?
Result: 117 to 118 °C

Ask: Next compound up: CCCCC[C@H]1CC[C@H](c2ccc(F)c(F)c2)CC1
Result: -9.5 °C

Ask: Now consider CCOC(=O)c1c(C(F)(F)F)nc(C(F)F)c(C(=O)O)c1NC1CC1 .
Result: 120 to 122 °C

Ask: Please do the same for CCCn1nc2c(N)nc3ccccc3c2c1NCCC1CCN(C(C)=O)CC1 as well.
Result: 203 to 206 °C

Ask: Can you check CCOC(=O)Nc1ccc(CCBr)c(Cl)c1 next?
Result: 112 to 114 °C

* * *

quantity name: melting point

# count of solved cases: 3
                                   compound       measured
0  COc1ccc(COc2cncc3c2C(=O)c2c(F)ccc(Cl)c2C3=O)cc1  155 to 157 °C
1  CNC(=O)[C@@H]1C[C@H](SCc2ccc(OC)cc2)CN1CCO  88 to 89.5 °C
2      O=C(O)c1ccc([N+](=O)[O-])c(C(=O)O)c1  257 to 258 °C

Turning to the following compound.
Ask: Need melting point, item FC(F)(F)Oc1ccc2nccc(N3CCN(C(=S)NCc4ccccc4)CC3)c2c1
Result: 70 to 71 °C

* * *

quantity name: melting point

In [3]: df
Out[3]:
                                   compound         measured
0  C=C(C)C(=O)OCCNC(=O)Oc1cccc(OC(=O)c2ccccc2)c1  57.5 to 61.5 °C
1             Cn1ncc2c1C(=O)C(Cl)=C(Cl)C2=O    176 to 177 °C
2  CCOC(=O)c1cc(SCc2ccccc2)c(Cc2ccccc2)c(S(N)(=O)=O)c1    108 to 110 °C
3  COc1cc(O)c(N2CCN(CCN3CC(C)(C)C3)C2=O)cc1Cl           138 °C

Next compound, melting point to be filled in.
Ask: Recorded melting point of CCC1c2cccn2-c2ccc(C(F)(F)F)cc2N1S(=O)(=O)c1ccc(O)c(Cl)c1 (configuration not stated) , please.
Result: 169 to 171 °C
